Source listed as the EternaBench riboswitch data.

test system: MS2 coat protein; assay: apparent Kd, MS2 coat protein; higher = weaker binding; RNA-MaP array; FMN 200 µM where present; conditions: designed as: OFF switch for flavin mononucleotide; no ligand
attribute measured: apparent Kd (nM)

- AUAUUACGAGGAUAUCGUUUUUAUCACAUGAGGAUCACCCAUGUAAUUUAUGUUUCGUUUCGAGAAGGCGUAAGUU: 19.8
- GUAAUGUGAGGAUAUGGUAAAGAUAAGAUGAUGAAAGAACUCCAGAAGGCACAUGAGGAUCACCCAUGUAGAUG: 26.7
- AGGAGUUUGUAGAAGGACGACUAUUAAGUUUUCGUAGGAUAUACUAUUUACAUGAGGAUCACCCAUGUUUAAAUGGAACAAUGU: 7.85
- CAUAUACAUGAGGAUCACCCAUGUGAGGAUAUGCUUUAUUAUUAUUAUUAUUAUUGUUGCAGAAGGUACAUUAC: 24.2
- GUACGUGGACAGAAGGUGACAUGAGGAUCACCCAUGUUAGUUGAGGUACCAGCGAUCCGCGUGAUUGAGGAUAUGUCUGCGGGC: 16.1
- UACGUACAGAAGUACGCCGGGUCCAGAAGGGACAUGAGGAUCACCCAUGUACCGUUGAUUGCUUGUCAGGAUAUGGACCCGGCC: 7.1
- AUCAGCUCGUCAGGAUAUACGUCACUGCGUCAGCAGUGUGGUAAGAUCACAUGAGGAUCACCCAUGUAGAAGGGAAGAGCUGAU: 15.1
- GCCGGUUCCCUAGGAUAUGUACAUGAGGAUCACCCAUGUGCUUCUAGAGCCGGAGCAGGGCAUGUACAGAAGGAGGGUCGACCC: 6.47
- GAUGAGGUAGGAUAUACGAGAAGAUAGGGUAGAUAGAGAACACAUGAGGAUCACCCAUGUAGAAGGACCAGUAG: 25.3
- GCAUCCAAAGUGAGGAUAUACCUCUGGAUACAUAGGUAGAAGGCACAUGAGGAUCACCCAUGUUCCUAGGAUGC: 31.6
- GUGGCUAGUGCAGGAUAUUGGCGCGUGUAGUGUCGAGAAGGGCACAUGAGGAUCACCCAUGUGAUCAAUCACUGCUAAGGUCGC: 6.98
- GCACGGUAAGUGAGGAUAUACCUCUGGAUACAGAGGUAGAAGGCACAUGAGGAUCACCCAUGUCUCAGCCGUGC: 16.3
- UGAUAGGACAGAGGAUAUACGGAUAGGAUCUACUAUCCUCCUUUAAUAACAUGAGGAUCACCCAUGUAGAAGGCUGUCCUAUCU: 15.3
- CUUAGACAUGAGGAUCACCCAUGUGAGGAUAUGAUGCGAUCGUGCUGACAUGAUCGCAUCAGAAGGCACAUAUG: 145
- CUCAUGUGAGGAUAUGUGAUCUGCCUUCUAUGUAGAUGAUCACAGAAGGCACAUGAGGAUCACCCAUGUAGAUC: 119
- GAGCGAAAGCUCAAUGUCGAUAGCAGAAGGACAUCCAACAACAUGAAAACAUGAGGAUCACCCAUGUAGGAUAUGCUAUCGACU: 6.8
- AAGGAUAGAGGAUAUACAUAGAUACAGAUUCGUGUAGUCCUACAUGAGGAUCACCCAUGUAGAAGGCUAUCCUA: 11.8
- GGAGAUACAUGAGGAUCACCCAUGUAGGAUAUCGAGUAUAUAUAUGGCGAAAGCCAUAUAUAUAUCGAGAAGGGCGUACACACC: 8.84
- AGGAGAAAUGUAGGAUAUGGGCGGGUAUAUGGGCAAAGCGCAUAUACCCGCCCAGAAGGACAUGAGGAUCACCCAUGUUUCCCU: 12.2
- CAUAUAGUAGUGAGGAUAUGCGAAUAUAUAAUUAAGUAGAAGGCACAUGAGGAUCACCCAUGUAUAUUGUAAAG: 20.6
- GCCCUCGCUGAGGAUAUUAUCUGGUUCGAUUGAUAAGAAGGCAGUACAUGAGGAUCACCCAUGUGGUUCGUUCG: 70.9
- AUACAUGAGGAUCACCCAUGUUACUGGGUCUUAAUAGAACGUAGAAGGAUGAUUUUAUAAAUAACAUAGGAUAUACAAUAUUGU: 181
- CGUCCUCUAGUUAGGAUAUUGUCUCGGAUACGAAACAAGAAGGGACAUGAGGAUCACCCAUGUAAUGAGGACGA: 29.2
- AGGCGUAAGACAGGAUAUAGGCAGCGGGCUGGAAACGAAUACAAAGACAUGAGGAUCACCCAUGUCUAGAAGGGUCGUGGCGGG: 9.05
- GGAUGCAAGGAGAAGGGCUACUGGUUGAAACCUGCGGCCUCUGGAACAUGAGGAUCACCCAUGUAGCAGGAUAUCCUUACGUGA: 233
- GGUACUCAAAGAGUACCAAUACGAACAUGAGGAUCACCCAUGUAGGAUAUGCUACUCAAAGAGUAGCAGAAGGACAUGUGCCCU: 60.5
- CCGCAAAUGGAGGAUAUCGUAUCGGAUACGAUACGAGAAGGCUAUACAUGAGGAUCACCCAUGUGUCCUAGCGG: 13.5
- UUUACUUACGAAGGAUAUGGUUACAUGAGGAUCACCCAUGUAUGUAUAUUGAUCUAGUAUUUUAACCAGAAGGUCGUGAUUAUU: 31.8
- UCGGGUUAUACAGGAUAUGUUUAGGUUUAUUCAUGCAGUUAUUAAUUUAUGACAGAAGGGUAUACAUGAGGAUCACCCAUGUCA: 542

###

test system: MS2 coat protein; assay: apparent Kd, MS2 coat protein; higher = weaker binding; RNA-MaP array; FMN 200 µM where present; settings: designed as: OFF switch for flavin mononucleotide; no ligand
Classification field: enter fulfilled for apparent Kd values not below 20 nM, not fulfilled for values below it.

* CUAUGGGCAGGAUAUGCAUAUCGGGAGUGGUCGCAAGCGUUACAUGAGGAUCACCCAUGUAGAAGGGCCGCGUC | not fulfilled
* GGAUGACAAAGUCAUCCAAUACGAACAUGAGGAUCACCCAUGUAGGAUAUGCAUCUCAAAGAGAUGCAGAAGGACAUGUGCCUU | fulfilled
* GAAUAAUUGAUCCAAUUUAUCUACAUGAGGAUCACCCAUGUGCAGGAUAUCGUAAAAUUUAAUAACGAGAAGGGCAAGAACGGU | fulfilled
* GGUGAAGCAGGAUAUGUGCCGAUAUACAUGAGGAUCACCCAUGUCAUGUAGGAACCGCGUAUAGAAGGGCUUCACC | fulfilled
* CAUGUUAUACAGGAUAUCCGUAUGUAAUUCGUCGGAGAAGGGUAUACAUGAGGAUCACCCAUGUAUUCCUAGCU | not fulfilled
* GCGUCAGAAUUAAUUGUGACAGACAGAAGGCAAUAGUUCAUGUCAGACAUGAGGAUCACCCAUGUUGAGGAUAUGUAUUUACAC | not fulfilled
* CGAUAUAUGAAGGGCGAACGCGCACAUGAGGAUCACCCAUGUAGAAGGCGGUCCGCAACGCGGAUCGAGGAUAUAUAGUAUACG | fulfilled
* AACGAGCUAGGAUAUGCACGGAAAAGCGUGGUCACUUAUGGACAUGAGGAUCACCCAUGUAGAAGGAGCGACGC | fulfilled
* CUGCUGGAGCUUUGCUUUAGUCGUACAUGAGGAUCACCCAUGUAGGAUAUGGUAGGCUAUGCUUACUAGAAGGAUAGAGUGGUC | fulfilled
* GUCGUGUGAGGAUAUGGAUCGACGCAGUGACAGUCAGCGACCUAGAAGGCACAUGAGGAUCACCCAUGUAUGUG | fulfilled
* GCAUCCAAAGUGAGGAUAUACCUCUGGAUACAGAGGUAGAAGGCACAUGAGGAUCACCCAUGUUCCUAGGAUGC | not fulfilled
* GCUGCCGCUGCAGGAUAUCAGCACGUGUAGUGCUGAGAAGGGCACAUGAGGAUCACCCAUGUGAUCAAUUAAUAAGCGUGCAGC | not fulfilled
* AGUAUGAUCCAGAAGGACAUAUGACCAAGACGAAACAUGAGGAUCACCCAUGUAGGAUAUGGAUCAUACAGGAUCGUGAGAUCA | not fulfilled
* GGCUCUGCUCGAGGAUAUAGCUGCAUGUAGUGUCCUGAGGCACAUGAGGAUCACCCAUGUGUAGGCUAGAAGGCGACAGAGGCG | fulfilled
* AAGAAGUGAGGAUAUGCUGCUCGUCACUUGCGUGAUGAGUAGCAGAAGGCACAUGAGGAUCACCCAUGUAAAGA | fulfilled

###

Listed below: apparent Kd values for each entry.
test system: MS2 coat protein; assay: apparent Kd, MS2 coat protein; higher = weaker binding; RNA-MaP array; conditions: ligand present: theophylline; designed as: ON switch for theophylline
attribute measured: apparent Kd (nM)

• UUAGCACAUGAGGAUCACCCAUGUCUCGAUACCAGAUAAGUUCCGAUCCCUUGGCAGCGACAAGCUUGCAAACUGCGACUAUUCU = 25
• AUGUCACAUGAGGAUCACCCAUGUAUGGAUACCAGUUUAGUGAAUAACCCUUGGCAGCCAAGGAUGCGACAGAAAUCCGGAAAAC = 21.1
• CCUGGACAUGAGGAUCACCCAUGUGAGGAUACCAGAUAUCCUGAUAUCCCUUGGCAGCCUCAUUACUUCGCAUUACCGAAACUUC = 249
• GACGGGCCUAUUGAUACCAGACCUAGUGACAACAUGAGGAUCACCCAUGUGACGGCAAAAGUCCCUUGGCAGCAAGUAGAAAUAA = 12.3
• CGUAAACAUGAGGAUCACCCAUGUGAUGAUACCAGCACGAUUAACUGCCCUUGGCAGCAUGUAUUGUACGACUUAUUGCCCAUCG = 16.8
